Attribution: the Immune Epitope Database (IEDB)

Molecular target: HLA-B*15:42
Assay: IEDB peptide-MHC binding, purified MHC/competitive/fluorescence; filed as Kd, often an IC50 or EC50 that approximates it; bounds were set here for any values at or beyond the usual limits of such assays
Settings: source organism: Influenza A virus (A/Fort Monmouth/1/1947-mouse adapted(H1N1))
measurement_type: Kd

query: # get_value(readout='Kd', item= "GTFEFTSFF" )
result: ≥ 5 µM

---

Target: HLA-A*02:16
Assay: IEDB peptide-MHC binding, purified MHC/direct/fluorescence; filed as Kd, often an IC50 or EC50 that approximates it; bounds were set here for any values at or beyond the usual limits of such assays
Settings: source organism: Orthohantavirus puumalaense
measurement_type: Kd

query: # get_value(readout='Kd', item= "QIQAGNFHW" )
result: ≥ 20 µM

---

Biological target: HLA-B*44:02
Experiment: IEDB peptide-MHC binding, purified MHC/competitive/radioactivity; filed as Kd, often an IC50 or EC50 that approximates it; bounds were set here for any values at or beyond the usual limits of such assays
Conditions: source organism: SARS coronavirus Tor2
pKd: −log10 of the molar value.
Classification field: enter MET for pKd values not below 7, NOT MET for values below it.

As a guide, the following entries are already answered.
SETLLPLTQY MET
QEYADVFHLY MET
SFYYIWKSYV NOT MET
REFVFKNKDG NOT MET

Now let's try a different one.
query: Tell me whether pKd is at least 7 here: "SEAFEYYHTL"
result: MET

---

Target: HLA-A*02:16
Assay: IEDB peptide-MHC binding, purified MHC/direct/fluorescence; filed as Kd, often an IC50 or EC50 that approximates it; bounds were set here for any values at or beyond the usual limits of such assays
Details: source organism: Choclo virus
measurement_type: Kd

query: So what Kd did "ELRQLAQSL" get with HLA-A*02:16?
result: ≥ 20 µM

---

Target: HLA-A*02:01
Experiment: IEDB peptide-MHC binding, purified MHC/direct/fluorescence; filed as Kd, often an IC50 or EC50 that approximates it; bounds were set here for any values at or beyond the usual limits of such assays
Details: source organism: Mammarenavirus lassaense
measurement_type: Kd (nM)
State just the number; it will be interpreted in nM.

query: # get_value(readout='Kd', item= "YLISIFLHL" )
result: 80.9

---

Target: HLA-A*32:01
Experiment: IEDB peptide-MHC binding, purified MHC/competitive/radioactivity; filed as Kd, often an IC50 or EC50 that approximates it; bounds were set here for any values at or beyond the usual limits of such assays
Conditions: source organism: Dengue virus 1 Brazil/97-11/1997
measurement_type: Kd

Solved entries:
EVKTCIWPKS ≥ 49.5 µM
SAVPVDWVPT 18.6 µM

query: So what Kd did "TTWALCESI" get with HLA-A*32:01?
result: 0.293 µM

---

Biological target: HLA-B*51:01
Assay: IEDB peptide-MHC binding, purified MHC/competitive/fluorescence; filed as Kd, often an IC50 or EC50 that approximates it; bounds were set here for any values at or beyond the usual limits of such assays
Conditions: source organism: Brucella abortus S19
measurement_type: Kd (nM)
State just the number; it will be interpreted in nM.

query: # get_value(readout='Kd', item= "CPLVLDFII" )
result: 323

---

Target: HLA-A*03:01
Experiment: IEDB peptide-MHC binding, purified MHC/competitive/fluorescence; filed as Kd, often an IC50 or EC50 that approximates it; bounds were set here for any values at or beyond the usual limits of such assays
Conditions: source organism: Escherichia coli 536
pKd: −log10 of the molar value.
measurement_type: pKd

query: # get_value(readout='pKd', item= "AVIVWLLLR" )
result: ≤ 4.70
